test: One hour kinetic solubility in citric acid/sodium citrate ion mixtures; type: physicochemical; details: USP buffer with citric acid/sodium citrate, 25 °C, aqueous buffer, thermodynamic from solid, citric acid/sodium citrate 0.05 M; 25° C.; read-out: Solubility at 1 hr
Endpoint Label: solubility at 1 h (mg/mL)
Numeric answer only, unit mg/mL assumed.

Qu. Recorded solubility at 1 h for CC(=O)[O-].CCO/N=C(\C(=O)N[C@@H]1C(=O)N2C(C(=O)O)=C(Sc3nc(-c4cc[n+](C)cc4)cs3)CS[C@H]12)c1nsc(NP(=O)(O)O)n1.O , please?
Ans. 121

* * *

assay: One hour kinetic solubility in DL arginine mixtures; type: physicochemical; details: USP buffer with DL arginine, 25 °C, aqueous buffer, thermodynamic from solid, DL arginine 0.5 M; 25° C.; read-out: Solubility at 1 hr
Endpoint Label: solubility at 1 h
Value and unit, in that order.

Qu. Recorded solubility at 1 h for CC(=O)[O-].CCO/N=C(\C(=O)N[C@@H]1C(=O)N2C(C(=O)O)=C(Sc3nc(-c4cc[n+](C)cc4)cs3)CS[C@H]12)c1nsc(NP(=O)(O)O)n1.O , please?
Ans. 142 mg/mL
